test: Absorption maximum after colour development in a photographic silver halide layer according to Use Example I; format: physicochemical; details: pyrazolone coupling agents
Collected Abs.max., second of two maxima (absorption maximum) values appear next to each entry.
// units = nm; emit number, no label

Examples from the recorded data:
[[record]]
compound = "CC(C)OP(=O)(CCCCCOc1cc(OCCCCCP(=O)(OC(C)C)OC(C)C)cc(C(=O)Nc2cccc(C(=O)NC3=NN(c4ccccc4)C(=O)C3)c2)c1)OC(C)C [(239)]"
unit_of_measurement = "nm"
value_reported = 532

[[record]]
compound = "CCCCOP(=O)(CCCOc1cccc(NC2=NN(c3cccc(Cl)c3)C(=O)C2)c1)OCCCC [(411)]"
unit_of_measurement = "nm"
value_reported = 532


Using known records, supply Abs.max., second of two maxima (absorption maximum) for CCCCOP(=O)(CCCOc1cc(OCCCP(=O)(OCCCC)OCCCC)cc(C(=O)Nc2cccc(C(=O)NC3=NN(c4c(C)cc(OC)cc4Cl)C(=O)C3)c2)c1)OCCCC [(260)]
535

---

Collected Abs.max., second of two maxima (absorption maximum) values appear next to each entry.
test: Absorption maximum after colour development in a photographic silver halide layer according to Use Example I; assay type: physicochemical; conditions: pyrazolone coupling agents
// units = nm; emit number, no label

Examples from the recorded data:
[[record]]
compound = "CCCCOP(=O)(CCCOc1cccc(NC2=NN(c3ccccc3)C(=O)C2)c1)OCCCC"
value_reported = 528

[[record]]
compound = "CCOP(=O)(CCCOc1cccc(C(=O)Nc2cccc(C(=O)NC3=NN(c4ccccc4)C(=O)C3)c2)c1)OCC"
value_reported = 534

[[record]]
compound = "CCCCC(CC)COP(=O)(CCCOc1cccc(C(=O)Nc2ccc(C(=O)NC3=NN(c4c(Cl)cc(Cl)cc4Cl)C(=O)C3)cc2)c1)OCC(CC)CCCC (stereo not shown)"
value_reported = 540


Using known records, supply Abs.max., second of two maxima (absorption maximum) for CCCCOP(=O)(CCCOc1cccc(C(=O)Nc2cccc(C(=O)NC3=NN(c4ccc(S(C)(=O)=O)cc4)C(=O)C3)c2)c1)OCCCC
538

---

assay: Absorption maximum after colour development in a photographic silver halide layer according to Use Example I; format: physicochemical; conditions: pyrazolone coupling agents
Collected Abs.max., second of two maxima (absorption maximum) values appear next to each entry.
Number plus unit, in that order.

Examples from the recorded data:
[[record]]
compound = "CCCCOP(=O)(CCCOc1cc(OCCCP(=O)(OCCCC)OCCCC)cc(C(=O)Nc2cccc(C(=O)NC3=NN(c4ccccc4)C(=O)C3)c2)c1)OCCCC [(229)]"
value_reported = "532 nm"

[[record]]
compound = "CCCCOP(=O)(CCCOc1cc(OCCCP(=O)(OCCCC)OCCCC)cc(C(=O)Nc2cccc(C(=O)NC3=NN(c4c(Cl)cc(Cl)cc4Cl)C(=O)C3)c2)c1)OCCCC [(222)]"
value_reported = "544 nm"

[[record]]
compound = "CCOP(=O)(CCCCCOc1cc(OCCCCCP(=O)(OCC)OCC)cc(C(=O)NC2=NN(c3c(Cl)cc(Cl)cc3Cl)C(=O)C2)c1)OCC [(214)]"
value_reported = "540 nm"


Using known records, supply Abs.max., second of two maxima (absorption maximum) for CC(C)OP(=O)(CCCOc1cccc(C(=O)Nc2cccc(C(=O)NC3=NN(c4c(Cl)cc(Cl)cc4Cl)C(=O)C3)c2)c1)OC(C)C [(232)]
541 nm

Using known records, supply Abs.max., second of two maxima (absorption maximum) for CCOP(=O)(CCCOc1ccc(C(=O)NC2=NN(c3c(Cl)cc(Cl)cc3Cl)C(=O)C2)cc1)OCC [(204)]
534 nm

Using known records, supply Abs.max., second of two maxima (absorption maximum) for CC(C)OP(=O)(CCCOc1cc(OCCCP(=O)(OC(C)C)OC(C)C)cc(C(=O)Nc2cccc(C(=O)NC3=NN(c4c(Cl)cc(Cl)cc4Cl)C(=O)C3)c2)c1)OC(C)C [(240)]
544 nm

Using known records, supply Abs.max., second of two maxima (absorption maximum) for CCOP(=O)(CCCCCOc1cccc(C(=O)Nc2ccc(C(=O)NC3=NN(c4c(Cl)cc(Cl)cc4Cl)C(=O)C3)cc2)c1)OCC [(207)]
540 nm

Using known records, supply Abs.max., second of two maxima (absorption maximum) for CCCCOP(=O)(CCCOc1cc(OCCCP(=O)(OCCCC)OCCCC)cc(C(=O)Nc2ccc(Cl)c(NC3=NN(c4c(Cl)cc(Cl)cc4Cl)C(=O)C3)c2)c1)OCCCC [(428)]
537 nm

Using known records, supply Abs.max., second of two maxima (absorption maximum) for CCCCOP(=O)(CCCOc1cc(OCCCP(=O)(OCCCC)OCCCC)cc(C(=O)Nc2ccc(C(=O)NC3=NN(c4c(Cl)cc(Cl)cc4Cl)C(=O)C3)cc2)c1)OCCCC [(218)]
542 nm

Using known records, supply Abs.max., second of two maxima (absorption maximum) for CCOP(=O)(CCCOc1ccc(C(=O)Nc2cccc(C(=O)NC3=NN(c4c(Cl)cc(Cl)cc4Cl)C(=O)C3)c2)cc1)OCC [(206)]
542 nm

Using known records, supply Abs.max., second of two maxima (absorption maximum) for CCCCOP(=O)(CCCOc1cccc(C(=O)Nc2c(C)cc(C)c(N3N=C(Nc4ccc(Cl)cc4)CC3=O)c2C)c1)OCCCC [(426)]
528 nm

Using known records, supply Abs.max., second of two maxima (absorption maximum) for CC(C)OP(=O)(CCCOc1cccc(C(=O)NC2=NN(c3c(Cl)cc(Cl)cc3Cl)C(=O)C2)c1)OC(C)C [(217)]
538 nm

Using known records, supply Abs.max., second of two maxima (absorption maximum) for CCOP(=O)(CCCOc1cccc(NC2=NN(c3cccc(Cl)c3)C(=O)C2)c1)OCC [(402)]
534 nm

Using known records, supply Abs.max., second of two maxima (absorption maximum) for CCOP(=O)(CCCOc1cccc(C(=O)Nc2ccc(C(=O)NC3=NN(c4c(Cl)cc(Cl)cc4Cl)C(=O)C3)cc2)c1)OCC [(201)]
542 nm

---

Collected Abs.max., first of two maxima (subsidiary maximum) values appear next to each entry.
test: Absorption maximum after colour development in a photographic silver halide layer according to Use Example I; assay type: physicochemical; conditions: pyrazolone coupling agents
// units = nm; emit number, no label

Using known records, supply Abs.max., first of two maxima (subsidiary maximum) for CCCCC(CC)COP(=O)(CCCOc1cccc(C(=O)Nc2cccc(NC(=O)NC3=NN(c4c(Cl)cc(Cl)cc4Cl)C(=O)C3)c2)c1)OCC(CC)CCCC (centres unmarked)
430

Using known records, supply Abs.max., first of two maxima (subsidiary maximum) for CCOP(=O)(CCCCCOc1cccc(C(=O)NC2=NN(c3c(Cl)cc(Cl)cc3Cl)C(=O)C2)c1)OCC
434

---

assay: Absorption maximum after colour development in a photographic silver halide layer according to Use Example I; format: physicochemical
endpoint: Abs.max. (single maximum) (nm)
// units = nm; emit number, no label

[[record]]
compound = "COc1ccc(C(=O)CC(=O)Nc2ccc(OP(=O)(Oc3ccccc3)C(C)(C)C)cc2)cc1 (centres unmarked) [(130)]"
value_reported = 437


Using known records, supply Abs.max. (single maximum) for CCCCC(CC)COP(=O)(CCCOc1cccc(NC(=O)CC(=O)c2ccccc2)c1)OCC(CC)CCCC (centres unmarked) [(122)]
436

Using known records, supply Abs.max. (single maximum) for CCCCC(CC)COP(=O)(CCCNC(=O)c1ccc(Cl)c(NC(=O)CC(=O)c2ccccc2OC)c1)OCC(CC)CCCC (centres unmarked) [(133)]
436

Using known records, supply Abs.max. (single maximum) for CCCCOP(=O)(CCCOc1cccc(C(=O)Nc2cccc(C(=O)CC(=O)Nc3cc(C)ccc3OC)c2)c1)OCCCC [(121)]
434

Using known records, supply Abs.max. (single maximum) for CCCCOP(=O)(CCCOc1cccc(NC(=O)c2ccc3ccccc3c2O)c1)OCCCC [(602)]
706

Using known records, supply Abs.max. (single maximum) for CCOP(=O)(CCCc1ccc(NC(=O)CC(=O)c2ccccc2)cc1)OCC [(101)]
437

Using known records, supply Abs.max. (single maximum) for CCCCC(CC)COP(=O)(CCCOc1cccc(C(=O)Nc2cccc(C(=O)CC(=O)Nc3cc(C)ccc3OC)c2)c1)OCC(CC)CCCC (centres unmarked) [(120)]
434

---

assay: Absorption maximum after colour development in a photographic silver halide layer according to Use Example I; assay type: physicochemical; conditions: pyrazolone coupling agents
endpoint: Abs.max., first of two maxima (subsidiary maximum) (nm)
// units = nm; emit number, no label

Examples from the recorded data:
[[record]]
compound = "CCCCOP(=O)(CCCOc1cccc(C(=O)Nc2cccc(C(=O)NC3=NN(c4ccc(S(C)(=O)=O)cc4)C(=O)C3)c2)c1)OCCCC"
unit_of_measurement = "nm"
value_reported = 440

[[record]]
compound = "CCCCOP(=O)(CCCOc1cc(OCCCP(=O)(OCCCC)OCCCC)cc(C(=O)Nc2cccc(C(=O)NC3=NN(c4ccccc4)C(=O)C3)c2)c1)OCCCC"
unit_of_measurement = "nm"
value_reported = 440

[[record]]
compound = "CCCCOP(=O)(CCCOc1cc(OCCCP(=O)(OCCCC)OCCCC)cc(C(=O)Nc2cccc(NC3=NN(c4ccc(S(C)(=O)=O)cc4)C(=O)C3)c2)c1)OCCCC"
unit_of_measurement = "nm"
value_reported = 430

[[record]]
compound = "CCCCC(CC)COP(=O)(CCCOc1cccc(C(=O)Nc2cccc(C(=O)NC3=NN(c4c(C)cc(C)cc4Cl)C(=O)C3)c2)c1)OCC(CC)CCCC (stereo not shown)"
unit_of_measurement = "nm"
value_reported = 440

[[record]]
compound = "CCOP(=O)(CCCCCOc1cc(OCCCCCP(=O)(OCC)OCC)cc(C(=O)Nc2cccc(C(=O)NC3=NN(c4ccccc4)C(=O)C3)c2)c1)OCC"
unit_of_measurement = "nm"
value_reported = 439


Using known records, supply Abs.max., first of two maxima (subsidiary maximum) for CCCCC(CC)COP(=O)(CCCOc1cc(OCCCP(=O)(OCC(CC)CCCC)OCC(CC)CCCC)cc(C(=O)Nc2cccc(C(=O)NC3=NN(c4ccccc4)C(=O)C3)c2)c1)OCC(CC)CCCC (stereo not shown)
440

Using known records, supply Abs.max., first of two maxima (subsidiary maximum) for CCOP(=O)(CCCOc1ccc(C(=O)NC2=NN(c3c(Cl)cc(Cl)cc3Cl)C(=O)C2)cc1)OCC
434

Using known records, supply Abs.max., first of two maxima (subsidiary maximum) for CCCCC(CC)COP(=O)(CCCOc1cccc(OCC(=O)Nc2cccc(C(=O)NC3=NN(c4c(C)cc(C)cc4Cl)C(=O)C3)c2)c1)OCC(CC)CCCC (stereo not shown)
440

Using known records, supply Abs.max., first of two maxima (subsidiary maximum) for CCCCOP(=O)(CCCOc1cc(OCCCP(=O)(OCCCC)OCCCC)cc(C(=O)NC2=NN(c3ccc(C#N)cc3)C(=O)C2)c1)OCCCC
440

Using known records, supply Abs.max., first of two maxima (subsidiary maximum) for CCOP(=O)(CCCOc1ccc(NC2=NN(c3c(Cl)cc(Cl)cc3Cl)C(=O)C2)cc1)OCC
425
